- testedOn: IRAK4 (Homo sapiens (Human))
- Sequence (Q9NWZ3 whole entry, species assumed): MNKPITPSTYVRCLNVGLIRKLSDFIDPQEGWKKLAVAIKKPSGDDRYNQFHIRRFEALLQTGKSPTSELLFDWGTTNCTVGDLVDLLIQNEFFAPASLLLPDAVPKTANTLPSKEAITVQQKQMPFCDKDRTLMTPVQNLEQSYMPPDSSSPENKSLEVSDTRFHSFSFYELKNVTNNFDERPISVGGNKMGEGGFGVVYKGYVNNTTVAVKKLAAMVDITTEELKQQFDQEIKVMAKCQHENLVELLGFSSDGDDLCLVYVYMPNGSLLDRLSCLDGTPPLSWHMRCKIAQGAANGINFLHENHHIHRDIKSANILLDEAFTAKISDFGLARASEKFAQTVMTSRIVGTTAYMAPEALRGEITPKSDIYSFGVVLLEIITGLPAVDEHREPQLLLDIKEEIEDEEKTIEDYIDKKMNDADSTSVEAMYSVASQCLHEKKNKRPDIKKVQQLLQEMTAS
Threshold-based label: IC50 under 4 nM gives Met, IC50 not under 4 nM gives Not met.

Example entries begin here.
In [3]: df
Out[3]:
                                   molecule  assignedclass
0  CC(C)(O)[C@H](F)CNC(=O)c1cnc(Nc2ccc3nccn3n2)cc1NC1CCCC1F (stereo partly drawn)            Met
1  CC(C)Nc1cc(Nc2ccc3nsnc3c2)ncc1C(=O)NC[C@@H](F)C(C)(C)O            Met

Input line: hey, is IC50 for `CC(C)(O)[C@H](F)CNC(=O)c1cnc(Nc2ccc3ncsc3c2)cc1NC12CCC(NS(=O)(=O)c3ccccc3)(CC1)C2` lower than 4 nM or not?
Output line: Not met

Input line: Strictly below 4 nM: is that where IC50 of CC(C)(O)[C@H](F)CNC(=O)c1cnc(Nc2ccc3ncsc3c2)cc1NC1CCCC1(F)F (stereo partly drawn) sits?
Output line: Met

Input line: Does `CC(C)(O)[C@H](F)CNC(=O)c1cnc(Nc2ccc3ncccc3c2)cc1NC1CC1` have IC50 strictly under 4 nM?
Output line: Not met

Input line: Given `CC(C)Nc1cc(Nc2ccn3nccc3n2)ncc1C(=O)NC12CCC(N)(CC1)CC2` , is recorded IC50 strictly lower than 4 nM?
Output line: Not met
